measured-on: SMYD3 (Homo sapiens (Human), UniProt Q9H7B4)
Sequence (Q9H7B4 whole entry): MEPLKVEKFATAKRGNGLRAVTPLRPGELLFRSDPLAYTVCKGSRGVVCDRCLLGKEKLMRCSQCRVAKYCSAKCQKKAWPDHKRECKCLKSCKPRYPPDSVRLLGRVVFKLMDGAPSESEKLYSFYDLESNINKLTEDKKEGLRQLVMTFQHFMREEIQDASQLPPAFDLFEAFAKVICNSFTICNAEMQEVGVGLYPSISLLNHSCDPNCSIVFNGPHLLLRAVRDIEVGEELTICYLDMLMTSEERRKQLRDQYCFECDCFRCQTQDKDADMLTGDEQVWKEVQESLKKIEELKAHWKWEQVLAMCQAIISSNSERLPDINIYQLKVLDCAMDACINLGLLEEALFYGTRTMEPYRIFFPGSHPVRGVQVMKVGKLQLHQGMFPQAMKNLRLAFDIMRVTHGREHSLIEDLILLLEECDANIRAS
assay-info: SMYD3 biochemical assay (SMYD3 enzyme assay on MEKK2 protein substrate, 3H-SAM scintillation proximity assay)
stated-conditions: read-out: SMYD3 Biochem IC50
pIC50: −log10 of the molar value.
quantity-name: pIC50

>>> observed("CC(NC(=O)c1cncnc1N)C1CCN(C(=O)[C@H](C)N)CC1 (some centres unmarked)")
"< 4.00"
>>> observed("CC(NC(=O)c1cc(=O)c2ccccc2o1)C1CCN(C(=O)[C@H](C)N)CC1 (some centres unmarked)")
"< 4.00"
>>> observed("N[C@H]1CC[C@H](NC(=O)c2ncc[nH]2)CC1")
"< 4.00"
>>> observed("COc1cccc(C(=O)N[C@H]2CC[C@H](N)CC2)n1")
"< 4.00"
>>> observed("CN(C(=O)CN)C1CCC(NC(=O)c2ccc3c(c2)CC(=O)N3)CC1 (centres unmarked)")
5.90
